These entries and their values trace back to the supplement of paper PMC9732359.

# reported protein stability index; entries follow
Assay: protein stability index of a GFP-peptide fusion (yeast GPS) (PSI 1-4); higher = more stable; sorted into four equal gates, so the index is relative within each strain
Conditions: doa10∆
# respond with the number and nothing more

sequence.chain: LMETLRTLRRKGDINPE [RPB2]
protein stability index: 3.08
--
sequence.chain: IPRHLQLAIRNDDELNK [HTA1]
protein stability index: 3.02

Using the record for LYSGLIIDEIITQMRVN [RPC82] , report its protein stability index.
2.12

Same question, IKELEHLHDAVFVNTGL [SWP82] this time
2.94

====

Experiment: protein stability index of a GFP-peptide fusion (yeast GPS) (PSI 1-4); higher = more stable; sorted into four equal gates, so the index is relative within each strain
Settings: doa10∆
value.kind: protein stability index
# respond with the number and nothing more

Reference set (6 entries):
sequence.chain: LASPEVKVHMDSETSDP [DIS3]
protein stability index: 3.09

sequence.chain: IVTALLESDVNIALVSK [SRP54]
protein stability index: 3.22

sequence.chain: MILKLVCQVTKFGLLLQ [ECM29]
protein stability index: 2.12

sequence.chain: VKTTLVSLTQLRCVKYL [RPC82]
protein stability index: 1.4

sequence.chain: ANQSATSTPPPPPAPHN [SNF5]
protein stability index: 2.98

sequence.chain: GLFGANSNSNSGSLFGS [YGL172W/NUP49]
protein stability index: 1.31

Using the record for RKQIQLLKKIIFEKELM [SRB4] , report its protein stability index.
1.93

Same question, IPYAAKLLFQELMAMNI [RPB2] this time
1.64

Same question, RAVLKSFLESVIRDSVT [HHF1] this time
2.62

Same question, HGILDDLETSLSQSSSY [MED2] this time
2.98

Same question, FKGHSHIVQDCTLTADG [ASC1] this time
1.67

Same question, APKIHILDPSTEYCVGD [YMR129W/POM152] this time
2.91
